- Test system: DLD1 NRF2-WT
- conditions: 72 h; CellTiter-Glo viability
Param label: returns yes (1) when EC50 viability < 100 nM, returns no (0) otherwise, including exact equality.

Is the reported EC50 viability for CNC(=O)c1ccc(N2C(=S)N(c3ccc(C#N)c(C(F)(F)F)c3)C(=O)C2(C)C)cc1F [Enzalutamide] strictly below 100 nM?
no (0)

Decide: EC50 viability of `CO[C@@H](C(=O)N1Cc2[nH]nc(NC(=O)c3ccc(N4CCN(C)CC4)cc3)c2C1)c1ccccc1` strictly below 100 nM?
no (0)

Record CCN(CC)C(=S)SSC(=S)N(CC)CC [Disulfiram(+CuCl2)] : is its EC50 viability strictly below 100 nM?
no (0)

Bench note: check whether CCN(CC)CCCC(C)Nc1ccnc2cc(Cl)ccc12 (stereo unspecified) shows EC50 viability below 100 nM
no (0)

# TODO verify EC50 viability < 100 nM strictly for this molecule: `COc1cc2ncnc(Nc3ccc(F)c(Cl)c3)c2cc1NC(=O)/C=C/CN1CCCCC1`
yes (1)

Confirm or reject: EC50 viability of `C=CC(=O)N1CCC(Oc2cc3c(Nc4ccc(Cl)c(Cl)c4F)ncnc3cc2OC)CC1` lies strictly below 100 nM
no (0)

Given `COC(=O)c1ccc2c(c1)NC(=O)/C2=C(\Nc1ccc(N(C)C(=O)CN2CCN(C)CC2)cc1)c1ccccc1` , is recorded EC50 viability strictly lower than 100 nM?
no (0)

I wonder whether `FC(F)(F)c1ccc(/C=C/c2nc(COc3ccc(CCCCn4ccnn4)cc3)co2)cc1` has EC50 viability below 100 nM. Can you tell?
yes (1)

Please check: EC50 viability for `CC(C)Oc1ccc(-c2nn([C@@H](C)c3oc4ccc(F)cc4c(=O)c3-c3cccc(F)c3)c3ncnc(N)c23)cc1F` , strictly under 100 nM or not?
no (0)

Decide: EC50 viability of `COc1cccc2c1c(O)c(C(=O)N(C)c1ccc(C(F)(F)F)cc1)c(=O)n2C` strictly below 100 nM?
no (0)

Given `COc1cccc2c1C(=O)c1c(O)c3c(c(O)c1C2=O)C[C@@](O)(C(=O)CO)C[C@@H]3O[C@H]1C[C@H](N)[C@H](O)[C@H](C)O1` , is recorded EC50 viability strictly lower than 100 nM?
no (0)

Is it true that EC50 viability reported for `COc1ncc(-c2ccc3nccc(-c4ccnnc4)c3c2)cc1NS(=O)(=O)c1ccc(F)cc1F` is less than 100 nM?
yes (1)

Threshold test, EC50 viability < 100 nM: `NC(=O)N1CCC(CC(=O)N2CCC([C@H]3c4ncc(Br)cc4CCc4cc(Cl)cc(Br)c43)CC2)CC1`
no (0)

Find out if reported EC50 viability for `Cc1cc(C)c(CNC(=O)c2cc(-c3ccc(CN4CCOCC4)cc3)cc3c2cnn3C2CCCC2)c(=O)[nH]1` is less than 100 nM
no (0)

Would you kindly verify if EC50 viability of `COC(=O)c1ccc([C@H]2c3[nH]c4ccccc4c3C[C@H](C(=O)OC)N2C(=O)CCl)cc1` is strictly less than 100 nM?
no (0)
